Assay: Single dose oral pharmacokinetic study in mice
Assay type: in vivo
Conditions: mouse, plasma; Oral PK @ 30 mg/ kg dose in mice (Table 6)
quantity: Cmax (ng/mL)
Could you give me the number in ng/mL? Just the number is fine.

- structure notation: "CC(C)(CC(=O)O[C@H]1CC[C@]2(C)[C@H]3CC[C@@H]4[C@H]5[C@H](C6(C)CC6)CC[C@]5(C(=O)N5CCOCC5)CC[C@@]4(C)[C@]3(C)CC[C@H]2C1(C)C)C(=O)O"
  measurement unit: "ng/mL"
  result number: 7000

Prompt: Need Cmax of "CC1([C@@H]2CC[C@]3(C(=O)N4CCC(C(=O)NCCN5CCOCC5)CC4)CC[C@]4(C)[C@H](CC[C@@H]5[C@@]6(C)CC[C@H](OC(=O)[C@H]7C[C@@H](C(=O)O)C7(C)C)C(C)(C)[C@@H]6CC[C@]54C)[C@@H]23)CC1" , thanks.
Completion: 9100

Prompt: Need Cmax of "CC(C)(CC(=O)O[C@H]1CC[C@]2(C)[C@H]3CC[C@@H]4[C@H]5[C@H](C6(C)CC6)CC[C@]5(C(=O)N5CCC(C(=O)NCCN6CCOCC6)CC5)CC[C@@]4(C)[C@]3(C)CC[C@H]2C1(C)C)C(=O)O" , thanks.
Completion: 5600

Prompt: Need Cmax of "[2H]C([2H])([2H])C(CC(=O)O[C@H]1CC[C@]2(C)[C@H]3CC[C@@H]4[C@H]5[C@H](C(=C)C)CC[C@]5(C(=O)N[C@@H]5C[C@H](C(=O)N6CCCCC6)C5(C)C)CC[C@@]4(C)[C@]3(C)CC[C@H]2C1(C)C)(C(=O)O)C([2H])([2H])[2H]" , thanks.
Completion: 9100

All figures here come from patent US20150119373A1.
